- target: T1, recombinant human CD47 (Novoprotein cat no. C321, lot no. 0329689) (human, UniProt Q08722 19-139)
- T1 construct: Bought reagent
- assay.info: SPR (ProteOn XPR36), mAb captured on anti-mouse Fc, CD47 as analyte, 25 C, 1:1 model
quantity: kon (M⁻¹ s⁻¹)
One number for each entry, in M⁻¹ s⁻¹.

Here is how some binders turned out for kon.
What does the data say about its kon? Entry: anti-CD47 AlivaMab antibody 139 (antibody, IgG1, V domains shown, Chimeric AlivaMab Mouse mAb from hybridoma: human V, CH1 and upper hinge, mouse middle hinge, CH2 and CH3, human kappa light chain) VH: QVQLQESGPGLVKPSETLSLTCTVSGGSISNYYWSWIRQPPGKGLEWIGYIYYSGSTNYNPSLKSRVTISVDTSKNQFSLKLSSVTAADTAVYYCARSRYFDLWGRGTLVTVSS VL: DIQMTQSPSAMSASVGDRVTITCRASQGISIYLAWFQQKPGKVPKRLIYAASSLQSGVPSRFSGSGSGTEFTLTISSLQPEDFATYYCLQHTSYPYTFGQGTKLEIK
1.18e+06

So what's the measured kon for this one? anti-CD47 AlivaMab antibody 91 (antibody, IgG1, V domains shown, Chimeric AlivaMab Mouse mAb from hybridoma: human V, CH1 and upper hinge, mouse middle hinge, CH2 and CH3, human kappa light chain; also called clone 91; mAb 91) VH: QVQLQESGPGLVKPSETLSLTCTVSGGSISTYYWSWIRQPPGKGLEWIGYIYYSGTTNYNPSLKSRVTISVDTSKNQFSLKLSSVTAADTAVYYCARKRDAFDIWGQGTMVTVSS VL: EIVLTQSPGTLSLSPGERATLSCRASQSVSSTYLAWSQQKPGQAPRLLIYGASSRATGIPDRFSGSGSGTDFTLTISRLEPEDFAVYYCQQYGSSRTFGQGTKVEIK
7.2e+06

Item anti-CD47 AlivaMab antibody 151 (antibody, IgG1, V domains shown, Chimeric AlivaMab Mouse mAb from hybridoma: human V, CH1 and upper hinge, mouse middle hinge, CH2 and CH3, human kappa light chain; also called clone 151; mAb 151) VH: QVQLQESGPGLVKPSETLSLTCTVSGGSISSYYWSWIRQPPGKGLEWIGYIYYSGSTNYNPSLKSRVTISVDTSKNQFSLKLSSVTAADTAVYYCARKRKYFDYWGQGTLVTVSS VL: DIQMTQSPSSLSASVGDRVTITCRASQGISNYLAWYQQKPGKVPKLLIYAASTLQSGVPSRFSGSGSGTDFTLTISSLQPEDVATYYCQKCNSAPFTFGPGTKVDIK has what recorded kon?
8.7e+06

Pending binder:
# get_value(readout='kon', item= anti-CD47 AlivaMab antibody 107 (antibody, IgG1, V domains shown, Chimeric AlivaMab Mouse mAb from hybridoma: human V, CH1 and upper hinge, mouse middle hinge, CH2 and CH3, human kappa light chain) VH: QVQLQESGPGLMKPSETLSLTCTVSGGSISSYYWTWIRQPPGKGLEWIGYIYYSGSTNYNPSLKSRVTISVDTSKNQFSLKLSSVTAADTAVYYCARGRGALTAWGQGTLVTVSS VL: DIQLTQSPSFLSASVGDRVTITCRASQDIGSYLAWCQQKPGKAPKLLIYAASTLQGGVPSRFSGSGSGTEFTLTISSLQPEDFATYYCQQLNSYPLTFGGGTKVEIK )
5.7e+06

Numbers sourced from patent US20220267440A1.
